Target: human APJ receptor (Homo sapiens (Human), UniProt P35414)
Sequence (P35414 whole entry): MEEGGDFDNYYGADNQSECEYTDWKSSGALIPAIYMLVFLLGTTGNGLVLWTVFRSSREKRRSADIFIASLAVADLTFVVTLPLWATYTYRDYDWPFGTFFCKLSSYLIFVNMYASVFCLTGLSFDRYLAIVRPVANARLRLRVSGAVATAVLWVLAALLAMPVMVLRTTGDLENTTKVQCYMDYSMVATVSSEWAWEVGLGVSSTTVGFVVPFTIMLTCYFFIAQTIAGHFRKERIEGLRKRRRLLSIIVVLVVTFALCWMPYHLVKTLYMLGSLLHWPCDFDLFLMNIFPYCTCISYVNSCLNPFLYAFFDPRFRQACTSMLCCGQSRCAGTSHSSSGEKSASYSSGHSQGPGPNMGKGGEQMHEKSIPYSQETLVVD
Experiment: [35S]GTPγS binding assay on membranes from CHO cells stably expressing human APJ receptor
Format: biochemical
Conditions: membranes of CHO cells stably expressing human APJ receptor, read-out: Activity hAPJ SPA EC50 IP
Reported log10 of EC50 values are given for each entry in this list.
Each number you see is log10 of EC50, and the unit inside the log is nM.

Some solved entries appear below for comparison.
>>> quantitative_readout("CO[C@H](c1ncc(Cl)cn1)[C@H](C)S(=O)(=O)Nc1nnc(-c2cncc(C)c2)n1Cc1ccon1")
2.30
>>> quantitative_readout("CCc1cc(Cn2c(NS(=O)(=O)[C@@H](C)[C@H](OC)c3ncc(Cl)cn3)nnc2-c2cncc(C)c2)on1")
2.30

query: Entry "COc1cccc(-c2nnc(NS(=O)(=O)[C@@H](C)[C@H](OC)c3ncc(Cl)cn3)n2Cc2ccno2)n1" has what log10 of EC50?
result: 0.98

query: Same for CC[C@@H](c1c(C)noc1C)n1c(NS(=O)(=O)[C@@H](C)[C@H](OC)c2cnc(C)cn2)nnc1-c1cccc(OC)n1 (single isomer, unassigned) [Example 223.0]
result: 1.51

query: Try this molecule next: "CO[C@H](c1ncc(Cl)cn1)[C@H](C)S(=O)(=O)Nc1nnc(-c2ccccn2)n1C(C1CC1)C1CC1"
result: -0.48

* * *

Molecular target: UniProt:P35414
Assay: [35S]GTPγS binding assay on membranes from CHO cells stably expressing human APJ receptor
Format: biochemical
Settings: membranes of CHO cells stably expressing human APJ receptor, read-out: Activity hAPJ SPA EC50 IP
Measured Metric: pEC50
As a rule, pEC50 stands for the negative log10 of the concentration, concentration in M.

Reference set, count: 4
>>> quantitative_readout("CO[C@H](c1ncc(Cl)cn1)[C@H](C)S(=O)(=O)Nc1nnc(-c2cncc(C)c2)n1C1CC1")
7.44
>>> quantitative_readout("COc1cccc(-c2nnc(NS(=O)(=O)[C@@H](C)[C@H](C)c3ncc(Cl)cn3)n2[C@@H](C)c2ccon2)n1 (racemic) [Example 268.0]")
8.57
>>> quantitative_readout("COc1cccc(-c2nnc(NS(=O)(=O)[C@@H](C)[C@H](C)c3ncc(Cl)cn3)n2Cc2cnoc2)n1")
6.19
>>> quantitative_readout("COc1cccc(-c2nnc(NS(=O)(=O)[C@@H](C)[C@H](OC)c3ncc(Cl)cn3)n2Cc2cc(C(F)(F)F)no2)n1")
8.35

query: // returns reported pEC50 for input "COCC(COC)n1c(NS(=O)(=O)[C@@H](C)[C@@H](OC(C)C)c2ncc(Cl)cn2)nnc1-c1ccccn1"
result: 8.74

query: Also need COc1cccc(-c2nnc(NS(=O)(=O)[C@@H](C)[C@H](C)c3ncc(Cl)cn3)n2[C@@H](C)c2ccno2)n1 (single isomer, unassigned) [Example 214.0] , thanks.
result: 8.54

query: Further, for CC[C@H]([C@@H]1CCCCO1)n1c(NS(=O)(=O)[C@@H](C)[C@H](OC)c2ncc(C)cn2)nnc1-c1cncc(C)c1 (single isomer, unassigned) [Example 333.0] ?
result: 8.11

query: Also "COc1cnc([C@@H](C)[C@H](C)S(=O)(=O)Nc2nnc(-c3cccc(OC)n3)n2C2CC2)nc1" , if possible.
result: 7.55

* * *

Target: human APJ receptor (Homo sapiens (Human), UniProt P35414)
Assay: [35S]GTPγS binding assay on membranes from CHO cells stably expressing human APJ receptor
Conditions: membranes of CHO cells stably expressing human APJ receptor, read-out: Activity hAPJ SPA EC50 IP
Experimental: The human APJ receptor was cloned by polymerase chain reaction and the gene encoding the receptor was subcloned in pFLAG-CMV™-3 expression vector (Sigma, Saint Louis, Mo. USA) in-house at Amgen. […] The optimum experimental conditions for the concentrations of GDP, MgCl2, and NaCl in the assay buffer were initially determined. […] Incubation was at RT for 90 min and the microplate was read using a ViewLux™ ultra HTS Microplate Imager (PerkinElmer, Inc.). […]
// boundary case: EC50 equal to 20 nM maps to f; strictly smaller maps to t

>>> classification("COc1cccc(-c2nnc(NS(=O)(=O)[C@@H](C)[C@H](OC)c3ncc(Cl)cn3)n2[C@@H](C)c2c(C)noc2C)n1 (racemic) [Example 310.0]")
"t"

query: Input "COc1cccc(-c2nnc(NS(=O)(=O)[C@@H](C)[C@H](C)c3ncc(C)cn3)n2C2CC2)n1" ; condition: EC50 strictly below 20 nM. Does it hold?
result: f

query: Follow-up item: COc1cccc(-c2nnc(NS(=O)(=O)[C@@H](C)[C@H](OC)c3ncc(Cl)cn3)n2C[C@H]2CCC(C)(C)O2)n1 (single isomer, unassigned) [Example 289.0]
result: f

query: Entry "COc1cccc(-c2nnc(NS(=O)(=O)[C@@H](C)[C@H](OC)c3ncc(Cl)cn3)n2C2CCCC2)n1" please
result: t

query: Lookup "CO[C@H](c1ncc(Cl)cn1)[C@H](C)S(=O)(=O)Nc1nnc(-c2ccccn2)n1C(C)C"
result: f

query: Now consider "COCC1(n2c(NS(=O)(=O)[C@@H](C)[C@@H](OC(C)C)c3ncc(C)cn3)nnc2-c2cccnc2)CC1" .
result: f

Origin of measurements: patent US10689367B2
